Each entry below lists one item and its recorded polymerase ribozyme fitness (log ratio) value.
B1: TPR 5TU (parent)
chain: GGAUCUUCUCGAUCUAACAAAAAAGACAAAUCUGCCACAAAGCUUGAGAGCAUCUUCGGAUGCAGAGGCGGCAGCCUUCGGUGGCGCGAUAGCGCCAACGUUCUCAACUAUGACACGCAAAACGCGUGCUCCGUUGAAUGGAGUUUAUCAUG

- Variants of: B1
- Method summary: polymerase ribozyme fitness, log enrichment relative to wild type (log ratio); higher = more active; in vitro selection for triplet polymerase activity
This sample holds only a part of the variants without activity.
# respond with the number and nothing more

// known answers, use as guide
{"Variant identifier": "A52U G84A G143C", "polymerase ribozyme fitness (log ratio)": -3.92}
{"Variant identifier": "U6G U78G C93U A98G A142C", "polymerase ribozyme fitness (log ratio)": -3.99}
{"Variant identifier": "A89U A150G", "polymerase ribozyme fitness (log ratio)": -0.42}
{"Variant identifier": "A21U A40C", "polymerase ribozyme fitness (log ratio)": 1.56}

Okay, now this variant:
Supply measured polymerase ribozyme fitness (log ratio) of G50A G65A C85U in your reply.
-3.49
